Assay: Blood levels in mice after intramuscular administration
Assay type: in vivo
Conditions: mouse, im, 20 mg/kg, 90 min after administration, read-out: Blood Level
outcome.measure: concentration at 1.5 h

### Prompt Please give measured concentration at 1.5 h of the following entry: C[C@@H](O)[C@H]1C(=O)N2C(C(=O)[O-])=C(SCCSc3cccc[n+]3C)C[C@H]12
### Response < 300 ng/mL

* * *

Assay: Blood levels in mice after intramuscular administration
Format: in vivo
Conditions: mouse, im, 20 mg/kg, 30 min after administration, read-out: Blood Level
outcome.measure: concentration at 0.5 h (ng/mL)
The reply should contain only the number, in ng/mL.

### Prompt Please give measured concentration at 0.5 h of the following entry: C[C@@H](O)[C@H]1C(=O)N2C(C(=O)[O-])=C(SCCSc3cccc[n+]3C)C[C@H]12
### Response 3600

* * *

Assay: Blood levels in mice after intramuscular administration
Type: in vivo
Settings: mouse, im, 20 mg/kg, 45 min after administration, read-out: Blood Level
outcome.measure: concentration at 0.75 h (ng/mL)
The reply should contain only the number, in ng/mL.

### Prompt Please give measured concentration at 0.75 h of the following entry: C[C@@H](O)[C@H]1C(=O)N2C(C(=O)[O-])=C(SCCSc3cccc[n+]3C)C[C@H]12
### Response 1000

* * *

Assay: Blood levels in mice after intramuscular administration
Assay type: in vivo
Details: mouse, im, 20 mg/kg, 60 min after administration, read-out: Blood Level
outcome.measure: concentration at 1 h

### Prompt Please give measured concentration at 1 h of the following entry: C[C@@H](O)[C@H]1C(=O)N2C(C(=O)[O-])=C(SCCSc3cccc[n+]3C)C[C@H]12
### Response < 0.3 µg/mL

* * *

Test: Blood levels in mice after intramuscular administration
Assay type: in vivo
Conditions: mouse, im, 20 mg/kg
outcome.measure: AUC (ng·h/mL)
The reply should contain only the number, in ng·h/mL.

### Prompt Please give measured AUC of the following entry: C[C@@H](O)[C@H]1C(=O)N2C(C(=O)[O-])=C(SCCSc3cccc[n+]3C)C[C@H]12
### Response 4100

* * *

Assay: Urinary recovery after intramuscular administration to mice
Type: in vivo
Conditions: mouse, urine, im, 20 mg/kg, 0-24 hours after administration, 0.1 M phosphate buffer pH 7, single test, 4 mice, read-out: Urinary recovery, Percentage of Dose Recovered
outcome.measure: dose excreted at 24 h (%)
The reply should contain only the number, in %.

### Prompt Please give measured dose excreted at 24 h of the following entry: C[C@@H](O)[C@H]1C(=O)N2C(C(=O)[O-])=C(SCCSc3cccc[n+]3C)C[C@H]12
### Response 31.5

This collection of values is drawn from patent US4880922A.
